Assayed system: CD73 (Calu-6 cells) (Homo sapiens, UniProt P21589)
Construct: endogenous in cells
Sequence (P21589 27-549): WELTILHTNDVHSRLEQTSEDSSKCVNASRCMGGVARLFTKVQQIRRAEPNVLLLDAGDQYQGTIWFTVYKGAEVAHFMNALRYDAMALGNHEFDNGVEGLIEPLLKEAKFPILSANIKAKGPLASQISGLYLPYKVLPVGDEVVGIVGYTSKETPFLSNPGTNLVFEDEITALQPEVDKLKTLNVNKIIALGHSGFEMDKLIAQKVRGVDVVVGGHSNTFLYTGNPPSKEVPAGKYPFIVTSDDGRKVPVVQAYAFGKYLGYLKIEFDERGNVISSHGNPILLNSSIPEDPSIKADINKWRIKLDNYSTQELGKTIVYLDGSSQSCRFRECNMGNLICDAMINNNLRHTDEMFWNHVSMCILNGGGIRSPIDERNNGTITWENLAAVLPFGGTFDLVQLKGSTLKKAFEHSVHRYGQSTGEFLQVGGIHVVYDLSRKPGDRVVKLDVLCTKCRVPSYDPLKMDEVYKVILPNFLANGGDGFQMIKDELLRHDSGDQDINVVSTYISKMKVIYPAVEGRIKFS
Measurement description: Enzymatic activity detection at the cellular level (Calu-6 cells, AMP substrate, Cell-titer Glo luminescence)
Applied conditions: enzymatic IC50 at the Calu-6 cell level, 30 min pre-incubation, 120 min at 37° C.
pIC50: −log10 of the molar value.
Quantity measured: pIC50

1. C/C=C/[C@H]1C[C@@H]1c1cc(-c2c[nH]c(=O)[nH]c2=O)nnc1C
2. CC[C@H]1C[C@@H]1c1cc(-c2c[nH]c(=O)[nH]c2=O)nnc1C1CC1
3. O=c1[nH]cc(-c2cc([C@H]3C[C@@H]3C#Cc3ccccc3)c(Cl)nn2)c(=O)[nH]1
Query: Rank the 3 compounds: largest pIC50 first, smallest last. The response must list the labels following the requested ordering.
Response: 3, 1, 2

a. O=c1[nH]cc(-c2cc(C3CC3c3ccc(C(F)(F)F)c(F)c3)c(Cl)nn2)c(=O)[nH]1 (stereo not drawn)
b. COc1cccc(C2CC2c2cc(-c3c[nH]c(=O)[nH]c3=O)nnc2Cl)c1 (stereo not drawn)
Query: Of a and b , whose reported pIC50 is numerically smaller? Return value: the label identifying the chosen record.
Response: a
(a: 7.82, b: 8.39)

I. COc1nnc(-c2c[nH]c(=O)[nH]c2=O)cc1C1CC1c1ccc(F)cc1 (stereo not drawn)
II. N#Cc1ccc(C2CC2c2cc(-c3c[nH]c(=O)[nH]c3=O)nnc2Cl)cc1 (stereo not drawn)
Query: Compare the recorded pIC50 of I and II ; state which is larger. Respond using the label that marks the chosen record.
Response: II
(II: 8.74, I: 8.27)

P. COc1nnc(-c2c[nH]c(=O)[nH]c2=O)cc1C1CC1c1ccc(C#N)cc1 (stereo not drawn)
Q. N#Cc1nnc(-c2c[nH]c(=O)[nH]c2=O)cc1C1CC1c1ccc(F)cc1 (stereo not drawn)
Query: When P and Q are compared, which has the higher number for pIC50? When you have decided, please share the label of that item.
Response: Q
(Q: 8.96, P: 8.14)

P. Cc1nnc(-c2c[nH]c(=O)[nH]c2=O)cc1[C@H]1C[C@@H]1C#Cc1ccccc1
Q. C=CC1CC1c1cc(-c2c[nH]c(=O)[nH]c2=O)nnc1C (stereo not drawn)
Query: Which is greater in pIC50, the first item P or the second item Q ? Please identify the chosen entry by its label.
Response: P
(P: 8.12, Q: 7.29)
